Reported protein stability index values are given for each entry in this list.
B1: GAGE1 (parent)
chain: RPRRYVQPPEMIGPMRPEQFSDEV

Variants of: B1
Assay: protein stability index of a GFP-peptide fusion (GPS, HEK-293T) (PSI 1-6); higher = more stable;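 note: lentivirally expressed fusions sorted by FACS into six bins by GFP to DsRed ratio, PSI derived from sequencing read proportions per bin multiplied by bin number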
Conditions: c terminus: a fixed tail appended
MEASURE_NAME: protein stability index

[[record]]
sequence_string = "RPRRYVQPPFMIGPMRPEQFSDEV [E10F]"
measure_name = "protein stability index"
measured_result = 3.88

[[record]]
sequence_string = "RPRRYVQPVEMIGPMRPEQFSDEV [P9V]"
measure_name = "protein stability index"
measured_result = 2.61

[[record]]
sequence_string = "FPRRYVQPPEMIGPMRPEQFSDEV [R1F]"
measure_name = "protein stability index"
measured_result = 3.24

[[record]]
sequence_string = "PPRRYVQPPEMIGPMRPEQFSDEV [R1P]"
measure_name = "protein stability index"
measured_result = 3.8

[[record]]
sequence_string = "RPRRYVQPPERIGPMRPEQFSDEV [M11R]"
measure_name = "protein stability index"
measured_result = 4.22

[[record]]
sequence_string = "RPRRYVQPPEMIGPMRPESFSDEV [Q19S]"
measure_name = "protein stability index"
measured_result = 3.82

[[record]]
sequence_string = "RPRRYNQPPEMIGPMRPEQFSDEV [V6N]"
measure_name = "protein stability index"
measured_result = 3.9

[[record]]
sequence_string = "RERRYVQPPEMIGPMRPEQFSDEV [P2E]"
measure_name = "protein stability index"
measured_result = 4.12

[[record]]
sequence_string = "RPRRYVQPPEKIGPMRPEQFSDEV [M11K]"
measure_name = "protein stability index"
measured_result = 4.15

[[record]]
sequence_string = "RPRRYVQPPEMIIPMRPEQFSDEV [G13I]"
measure_name = "protein stability index"
measured_result = 3.25

